# Assay name: physchem
# Particulars: pH 5, Solubility (µg/mL)
Assay readout: solubility at 24 h (µg/mL)
Response body: numeric value in µg/mL, unit text excluded.

Please report the recorded solubility at 24 h for Cc1cc2c(C(N)=O)c(N)n(-c3c(C)ccc(O)c3C)c2nc1C (atropisomer, axis not shown) [RP-6306, reference compound] .
31.6

###

# System tested: PKMYT1 enzyme (Homo sapiens, UniProt Q99640)
# Construct: purchased Thermo Scientific A33387
# Assay name: PKMYT1 enzyme inhibition activity, ADP-GLO method
# Type: biochemical
# Particulars: PKMYT1 enzyme 10 nM, ATP 5 µM, 37°C 90 minutes; read-out: ADP-GLO IC50
Kindly state IC50 for each of the entries shown.
Response body: numeric value in nM, unit text excluded.

Please report the recorded IC50 for Cc1cc(F)c(O)c(C)c1-n1c(N)c(C(N)=O)c2cc(C(F)(F)F)c(C)nc21 (atropisomer, axis not shown) [Example 59.1] .
4.49

Please report the recorded IC50 for Cc1cc(F)c(O)c(C)c1-n1c(N)c(C(N)=O)c2cc(Cl)c(C)nc21 (atropisomer, axis not shown) [Example 60.2] .
1.88

Please report the recorded IC50 for CCN(CC)c1ncc2c(C(N)=O)c(N)n(-c3c(C)ccc(O)c3C)c2n1 .
71.5

Please report the recorded IC50 for Cc1ccc(O)c(C)c1-n1c(N)c(C(N)=O)c2cnccc21 .
13.7

Please report the recorded IC50 for Cc1cc(F)c(O)c(C)c1-n1c(N)c(C(N)=O)c2cc(C3CCOCC3)c(C)nc21 (atropisomer, axis not shown) [Example 163] .
23.4

Please report the recorded IC50 for COc1cnc2c(c1)c(C(N)=O)c(N)n2-c1c(C)cc(F)c(O)c1C .
12.6

Please report the recorded IC50 for Cc1cc2c(C(N)=O)c(N)n(-c3c(C)c(C)cc(O)c3C)c2nc1C .
194

###

# System tested: PKMYT1 enzyme (Homo sapiens, UniProt Q99640)
# Construct: purchased Thermo Scientific A33387
# Sequence (Q99640 1-499): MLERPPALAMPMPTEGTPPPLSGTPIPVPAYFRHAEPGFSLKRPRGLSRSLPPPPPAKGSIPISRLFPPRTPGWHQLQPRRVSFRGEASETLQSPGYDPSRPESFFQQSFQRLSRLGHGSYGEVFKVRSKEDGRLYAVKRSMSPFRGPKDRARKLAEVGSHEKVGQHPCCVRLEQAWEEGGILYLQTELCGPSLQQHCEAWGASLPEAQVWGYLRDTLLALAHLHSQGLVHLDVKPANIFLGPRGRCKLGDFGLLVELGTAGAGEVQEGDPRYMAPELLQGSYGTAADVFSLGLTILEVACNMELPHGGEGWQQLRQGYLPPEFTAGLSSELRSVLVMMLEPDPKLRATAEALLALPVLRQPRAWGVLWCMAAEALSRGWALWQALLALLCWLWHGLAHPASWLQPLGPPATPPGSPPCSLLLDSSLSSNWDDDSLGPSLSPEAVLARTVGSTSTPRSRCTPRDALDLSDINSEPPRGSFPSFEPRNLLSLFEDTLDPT
# Assay name: PKMYT1 enzyme inhibition activity, ADP-GLO method
# Format: biochemical
# Particulars: PKMYT1 enzyme 10 nM, ATP 5 µM, 37°C 90 minutes; read-out: ADP-GLO IC50
Assay readout: IC50 (nM)
Response body: numeric value in nM, unit text excluded.

For the record Cc1cc2c(C(N)=O)c(N)n(-c3c(C)cc(F)c(O)c3C)c2nc1CC(C)C , what value of IC50 is listed for PKMYT1 enzyme (Homo sapiens, UniProt Q99640)?
20.1

For the record C=C(C)c1cnc2c(c1)c(C(N)=O)c(N)n2-c1c(C)c(O)cc(F)c1C (atropisomer, axis not shown) [Example 133.1] , what value of IC50 is listed for PKMYT1 enzyme (Homo sapiens, UniProt Q99640)?
2.43

For the record COC(C)(C)c1cnc2c(c1)c(C(N)=O)c(N)n2-c1c(C)cc(F)c(O)c1C , what value of IC50 is listed for PKMYT1 enzyme (Homo sapiens, UniProt Q99640)?
35.2

For the record Cc1c(O)cc(F)c(C)c1-n1c(N)c(C(N)=O)c2cc(Br)cnc21 , what value of IC50 is listed for PKMYT1 enzyme (Homo sapiens, UniProt Q99640)?
9.68

Numbers sourced from patent EP4624471A1.
